Field: normalised viability. Provide a value for each of the compounds that follow.
# Test system: MDA-MB-231
# Assay remarks: normalised viability (% of control), CellTiter-Blue; higher = more viable cells (about 100 = DMSO control)
# Measurement conditions: 1000 nM; incubation time: 72 h
Numbers only, in %.

Known normalised viability results, listed for orientation:
Return value of normalised viability for input Cn1cnc2c(F)c(Nc3ccc(Br)cc3F)c(C(=O)NOCCO)cc21 , no commentary.
47

Output normalised viability of COC1=CC(c2cc3ccccc3[nH]2)=N/C1=C\c1[nH]c(C)cc1C
11.4

Please report normalised viability for the following compound: O=c1[nH]cc(F)c(=O)[nH]1
97.5

Record normalised viability per entry; entries follow.
1. C[C@@]1(C(=O)Nc2ccc(F)nc2)CCCN1c1nc(Nc2cc(C3CC3)n[nH]2)c2cccn2n1
2. O=c1[nH]c(=O)n([C@H]2C[C@H](O)[C@@H](CO)O2)cc1F
3. COc1c(C)cnc(Cn2cnc3c(Cl)nc(N)nc32)c1C
4. CCCC(CCC)C(=O)O
5. COc1cc(Nc2ncc(F)c(Nc3ccc4c(n3)NC(=O)C(C)(C)O4)n2)cc(OC)c1OC

46
58.1
34.1
101
77.2
